- assay.explanation: Metabolic stability in liver microsomes
- experimental.conditions: monkey, liver microsomes, pH 7.4

| compound | remaining at 1.5 h, 1 μM |
| --- | --- |
| CCc1cc(Cl)c(OC)c(N2CCN(CC(O)CCNC(=O)c3cc4ccccc4[nH]3)CC2)c1 (stereo not shown) | 17.5% |

###

- measurement.target: CYP3A4 (Homo sapiens)
- Sequence (P08684 2-503): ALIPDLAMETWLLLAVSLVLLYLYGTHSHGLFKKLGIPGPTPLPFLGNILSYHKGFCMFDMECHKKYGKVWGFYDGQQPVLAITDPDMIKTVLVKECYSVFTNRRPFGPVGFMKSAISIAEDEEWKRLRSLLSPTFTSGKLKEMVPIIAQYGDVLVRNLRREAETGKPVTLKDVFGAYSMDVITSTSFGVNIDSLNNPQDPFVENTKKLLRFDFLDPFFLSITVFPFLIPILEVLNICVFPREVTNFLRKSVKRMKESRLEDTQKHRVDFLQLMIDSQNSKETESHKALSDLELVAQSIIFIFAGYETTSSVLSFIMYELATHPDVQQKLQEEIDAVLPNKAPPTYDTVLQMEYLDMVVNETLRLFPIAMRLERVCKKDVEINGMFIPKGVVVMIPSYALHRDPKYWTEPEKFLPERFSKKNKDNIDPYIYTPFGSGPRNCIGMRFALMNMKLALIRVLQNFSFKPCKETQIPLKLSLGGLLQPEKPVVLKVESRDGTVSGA
- assay.explanation: in vitro
- experimental.conditions: microsomes, CYP activity (% of Control) 3A4 (Testosterone)

| molecule | activity at 20 min, 3 µM / % |
| --- | --- |
| Nc1ccc(S(=O)(=O)Nc2ccnn2-c2ccccc2)cc1 | 95.9 |
| CCc1cc(Cl)c(OC)c(N2CCN(CC(O)CCNC(=O)c3cc4ccccc4[nH]3)CC2)c1 (centres unmarked) | 92.8 |

###

- assay.explanation: Metabolic stability in hepatocyte
- experimental.conditions: Beagle, dog, hepatocytes in suspension
property.label: hepatocyte CLint at 10 μM (µL/min/1e6 cells)

| compound | measured.number |
| --- | --- |
| CCc1cc(Cl)c(OC)c(N2CCN(CC(O)CCNC(=O)c3cc4ccccc4[nH]3)CC2)c1 (stereo not shown) [R-VK4-116] | 4 |

###

- Tested on: CYP1A2 mRNA
- assay.explanation: CYP induction, mRNA, primary cultured human hepatocytes
- Type: in vitro ADME
- experimental.conditions: Lot 336, 0.01 μM, read-out: CYP1A2 mRNA Fold Induction (fold of vehicle control)

| compound | fold induction at 48 h, 0.01 µM |
| --- | --- |
| CCc1cc(Cl)c(OC)c(N2CCN(CC(O)CCNC(=O)c3cc4ccccc4[nH]3)CC2)c1 (stereo not shown) | 1.1 |

###

- Test system: CYP3A4 mRNA
- assay.explanation: CYP induction, mRNA, primary cultured human hepatocytes
- Assay type: in vitro ADME
- experimental.conditions: human, primary cultured human hepatocytes, Lot 348B, 1 μM; read-out: CYP3A4 mRNA Fold Induction (fold of vehicle control)
property.label: fold induction at 48 h, 1 µM

| compound | result |
| --- | --- |
| CCc1cc(Cl)c(OC)c(N2CCN(CC(O)CCNC(=O)c3cc4ccccc4[nH]3)CC2)c1 (stereo not shown) | 1.3 |

###

- System: CYP2B6
- assay.explanation: CYP induction, mRNA, primary cultured human hepatocytes
- experimental.conditions: primary cultured human hepatocytes, Fold Induction (CYP2B6 mRNA expression), hepatocyte Lot 399, 1 µM

| compound | fold induction at 48 h, 1 µM |
| --- | --- |
| CCc1cc(Cl)c(OC)c(N2CCN(CC(O)CCNC(=O)c3cc4ccccc4[nH]3)CC2)c1 (stereo not shown) | 1.2 |

###

- measurement.target: P-gp (Homo sapiens)
- Construct: expressed in transfected cells; host or cells: MDCK-II cells
- Sequence (P08183 whole entry): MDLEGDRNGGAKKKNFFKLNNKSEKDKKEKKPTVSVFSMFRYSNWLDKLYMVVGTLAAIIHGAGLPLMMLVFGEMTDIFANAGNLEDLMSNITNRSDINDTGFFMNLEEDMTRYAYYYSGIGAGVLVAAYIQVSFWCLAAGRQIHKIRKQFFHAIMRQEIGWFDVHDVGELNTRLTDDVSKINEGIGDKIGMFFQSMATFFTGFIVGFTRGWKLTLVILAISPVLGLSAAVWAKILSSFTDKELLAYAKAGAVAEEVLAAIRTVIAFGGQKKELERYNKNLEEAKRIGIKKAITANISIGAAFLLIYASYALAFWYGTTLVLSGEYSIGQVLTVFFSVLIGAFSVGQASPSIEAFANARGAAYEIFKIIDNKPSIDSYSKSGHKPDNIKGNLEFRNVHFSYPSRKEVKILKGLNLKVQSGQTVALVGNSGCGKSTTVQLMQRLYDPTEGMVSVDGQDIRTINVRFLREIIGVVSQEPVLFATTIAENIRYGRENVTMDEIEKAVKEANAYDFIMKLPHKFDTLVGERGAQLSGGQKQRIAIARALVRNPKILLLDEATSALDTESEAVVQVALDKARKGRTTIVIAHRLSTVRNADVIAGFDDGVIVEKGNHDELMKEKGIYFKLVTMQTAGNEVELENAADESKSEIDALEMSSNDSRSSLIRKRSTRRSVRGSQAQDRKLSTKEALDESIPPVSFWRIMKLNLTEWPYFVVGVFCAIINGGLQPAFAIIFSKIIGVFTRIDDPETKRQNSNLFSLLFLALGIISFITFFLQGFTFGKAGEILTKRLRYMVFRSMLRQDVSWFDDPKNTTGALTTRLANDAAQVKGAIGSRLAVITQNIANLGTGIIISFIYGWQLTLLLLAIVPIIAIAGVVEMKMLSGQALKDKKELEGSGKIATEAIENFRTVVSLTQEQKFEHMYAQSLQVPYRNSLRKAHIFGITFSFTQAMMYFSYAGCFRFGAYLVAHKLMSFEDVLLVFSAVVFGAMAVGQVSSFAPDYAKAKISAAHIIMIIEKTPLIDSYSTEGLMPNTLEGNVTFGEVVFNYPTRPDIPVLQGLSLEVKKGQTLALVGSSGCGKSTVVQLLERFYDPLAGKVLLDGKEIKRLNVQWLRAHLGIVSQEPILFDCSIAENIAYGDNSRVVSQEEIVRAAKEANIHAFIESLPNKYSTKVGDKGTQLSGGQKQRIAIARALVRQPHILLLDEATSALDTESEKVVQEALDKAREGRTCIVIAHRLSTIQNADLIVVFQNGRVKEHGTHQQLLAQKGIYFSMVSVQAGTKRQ
- assay.explanation: Transporter mediated assay (substrate/inhibitor), MDCK-II cells
- Format: in vitro ADME
- experimental.conditions: human, MDCK-MDR1; P-gp, substrate test, 1 µM

| compound | Papp B→A at 1 µM |
| --- | --- |
| CCc1cc(Cl)c(OC)c(N2CCN(CC(O)CCNC(=O)c3cc4ccccc4[nH]3)CC2)c1 (stereo not shown) [R-VK4-116] | < 0.1 ×10⁻⁶ cm/s |

###

- assay.explanation: Plasma protein binding, Sephadex G-25 gel filtration
- Type: in vitro ADME
- experimental.conditions: rat, plasma, nominal 0.5 μM, read-out: % Bound, Mean ± SD (converted)
- Procedure: The gel filtration used solid-phase extraction columns containing hydrated gel filtration beads (Sephadex G-25). […] In this method, the amount of analyte accompanying the proteins (i.e., protein-bound R-VK4-116) before and after filtration was assayed for analyte concentration by LC-MS/MS.
property.label: fraction unbound at 2 h, 0.5 μM

| compound | property.label | measured.number |
| --- | --- | --- |
| CCc1cc(Cl)c(OC)c(N2CCN(CC(O)CCNC(=O)c3cc4ccccc4[nH]3)CC2)c1 (stereo not shown) [R-VK4-116] | fraction unbound at 2 h, 0.5 μM | 0.168 |
